SYSTEM_TESTED: Substance-K receptor (Rattus norvegicus) (UniProt P16610)
Sequence (whole entry): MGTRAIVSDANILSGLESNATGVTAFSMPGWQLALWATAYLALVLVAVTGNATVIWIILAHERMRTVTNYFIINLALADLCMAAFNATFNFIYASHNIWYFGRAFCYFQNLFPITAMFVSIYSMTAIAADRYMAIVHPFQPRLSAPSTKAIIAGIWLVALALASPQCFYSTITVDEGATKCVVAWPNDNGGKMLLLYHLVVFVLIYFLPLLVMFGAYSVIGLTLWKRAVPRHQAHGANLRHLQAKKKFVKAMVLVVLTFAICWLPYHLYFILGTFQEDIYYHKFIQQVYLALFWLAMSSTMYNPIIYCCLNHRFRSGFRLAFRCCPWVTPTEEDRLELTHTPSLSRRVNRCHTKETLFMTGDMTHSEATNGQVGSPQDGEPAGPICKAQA
PROTOCOL_DETAILS: Compound was evaluated for antagonism of contractile response of rat colon muscularis mucosae (RC) at tachykinin receptor 2
Type: functional, tissue-based
DETAILS: Muscularis mucosa
Task for the reader: assign each of the following compounds its reported pKB.
Give bare numbers.

Consider the following illustrative entries.
COMPOUND_STRUCTURE_STRING	SYSTEM_TESTED	pKB
CCCC[C@H](NC(=O)[C@H](CC(C)C)NC(=O)[C@@H](Cc1c[nH]c2ccccc12)NC(=O)[C@H](Cc1ccccc1)NC(=O)[C@@H](Cc1c[nH]c2ccccc12)NC(=O)[C@H](CCC(N)=O)NC(=O)[C@@H](N)CCCN=C(N)N)C(N)=O	Substance-K receptor (Rattus norvegicus) (UniProt P16610)	5.7
CCCC[C@H](NC(=O)[C@@H]1CCCN1C(=O)[C@H]1CCCN1C(=O)[C@H](Cc1ccccc1)NC(=O)[C@@H](Cc1c[nH]c2ccccc12)NC(=O)[C@H](C)NC(=O)[C@H](CCCN=C(N)N)NC(=O)OCc1ccccc1)C(N)=O	Substance-K receptor (Rattus norvegicus) (UniProt P16610)	7.5
CNC(=O)[C@@H]1CCCN1C(=O)[C@H]1CCCN1C(=O)[C@H](Cc1ccccc1)NC(=O)[C@@H](Cc1c[nH]c2ccccc12)NC(=O)[C@H](C)NC(=O)[C@H](CCCN=C(N)N)NC(=O)OC(C)(C)C	Substance-K receptor (Rattus norvegicus) (UniProt P16610)	7.5

Turning now to a further compound:
Entry "CCCCCNC(=O)[C@@H]1CCCN1C(=O)[C@H]1CCCN1C(=O)[C@H](Cc1ccccc1)NC(=O)[C@@H](Cc1c[nH]c2ccccc12)NC(=O)[C@H](C)NC(=O)[C@H](CCCN=C(N)N)NC(=O)OC(C)(C)C" , tested on Substance-K receptor (Rattus norvegicus) (UniProt P16610), has a reported pKB of 7.6
